Entry source: patent US20100292205A1

biological target: Recombinant human GSK3β (Homo sapiens, UniProt P49841); construct: His-tag; made in house; host or cells: Sf9 insect cells / baculovirus; experiment: GSK-3β (Glycogen Synthase Kinase) cell free enzyme assay; format: biochemical; settings: cell free enzyme assay; Examples 265-291
Sequence (P49841 whole entry): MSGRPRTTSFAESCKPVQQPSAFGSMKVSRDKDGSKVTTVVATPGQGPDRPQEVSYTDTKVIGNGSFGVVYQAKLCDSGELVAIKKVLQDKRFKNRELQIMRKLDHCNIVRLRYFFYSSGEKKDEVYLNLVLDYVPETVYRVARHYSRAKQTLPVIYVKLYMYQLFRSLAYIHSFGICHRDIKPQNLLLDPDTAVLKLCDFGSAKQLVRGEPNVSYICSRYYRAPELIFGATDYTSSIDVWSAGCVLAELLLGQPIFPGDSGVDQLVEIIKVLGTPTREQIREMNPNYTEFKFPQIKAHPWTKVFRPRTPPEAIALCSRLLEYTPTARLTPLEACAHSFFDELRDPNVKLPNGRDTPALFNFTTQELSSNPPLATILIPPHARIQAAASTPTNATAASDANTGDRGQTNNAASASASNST
Catalogue of pIC50 values
# pIC50 = -log10(concentration in molar units)

Data request, read-out pIC50, for CN(c1nc(-c2ccncc2F)cc(=O)n1C)[C@H]1[C@@H]2CN(c3nnnn3Cc3cccc(OC(F)(F)F)c3)C[C@@H]21
7.56

Data request, read-out pIC50, for CCOCCn1nnnc1N1C[C@@H]2[C@H](C1)[C@H]2N(C)c1nc(-c2ccncc2F)cc(=O)n1C
7.54

Data request, read-out pIC50, for CC(C)Cc1nn(C)c2c(=O)[nH]c(N3C[C@@H]4[C@H](C3)[C@H]4N(C)c3nc(-c4ccncc4F)cc(=O)n3C)nc12
6.96

More entries:
Data request, read-out pIC50, for CN(c1nc(-c2ccncc2F)cc(=O)n1C)[C@H]1[C@@H]2CN(c3nc(C(F)(F)F)c(C(=O)OCc4ccccc4)s3)C[C@@H]21
6.90
